Sourced from patent US20230357429A1

Molecular target: T1, Human TROP2 ECD (31-274 AA), biotinylated (human, UniProt P09758 31-274, biotinylated (site not stated))
T1 construct: captured on neutravidin plates; also called TROP2-biotin; Trop2-biotin
T1 sequence: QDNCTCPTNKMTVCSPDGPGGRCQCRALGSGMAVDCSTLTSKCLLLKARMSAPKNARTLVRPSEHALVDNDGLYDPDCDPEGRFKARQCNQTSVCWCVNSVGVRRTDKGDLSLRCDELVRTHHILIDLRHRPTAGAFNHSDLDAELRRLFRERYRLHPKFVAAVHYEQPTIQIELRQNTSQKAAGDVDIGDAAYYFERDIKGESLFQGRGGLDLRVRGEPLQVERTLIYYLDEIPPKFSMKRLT
Assay: ELISA, Fab on captured biotin-TROP2
Collected EC50 values appear next to each entry.

| binder | EC50 |
| --- | --- |
| TBD-22 (HC D109A) (Fab, V domains shown, Fab; also called HC D109A mutant) VH: QVQLQQSGSELKKPGASVKVSCKASGYTFTNYGMNWVKQAPGQGLKWMGWINTYTGEPTYTDDFKGRFAFSLDTSVSTAYLQISSLKADDTAVYFCARGGFGSSYWYFAVWGQGSLVTVSS VL: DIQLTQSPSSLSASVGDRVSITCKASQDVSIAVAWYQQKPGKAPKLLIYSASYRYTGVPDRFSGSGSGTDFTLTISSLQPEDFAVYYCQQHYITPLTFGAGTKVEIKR | 1.1 nM |
| TBD-21 (HC F108A) (Fab, V domains shown, Fab; also called HC F108A mutant) VH: QVQLQQSGSELKKPGASVKVSCKASGYTFTNYGMNWVKQAPGQGLKWMGWINTYTGEPTYTDDFKGRFAFSLDTSVSTAYLQISSLKADDTAVYFCARGGFGSSYWYADVWGQGSLVTVSS VL: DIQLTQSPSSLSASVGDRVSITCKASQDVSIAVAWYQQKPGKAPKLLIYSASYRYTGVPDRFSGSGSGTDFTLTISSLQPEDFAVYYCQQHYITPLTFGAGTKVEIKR | 4.2 nM |
| TBD-17 (HC S104A) (Fab, V domains shown, Fab; also called HC S104A mutant) VH: QVQLQQSGSELKKPGASVKVSCKASGYTFTNYGMNWVKQAPGQGLKWMGWINTYTGEPTYTDDFKGRFAFSLDTSVSTAYLQISSLKADDTAVYFCARGGFGSAYWYFDVWGQGSLVTVSS VL: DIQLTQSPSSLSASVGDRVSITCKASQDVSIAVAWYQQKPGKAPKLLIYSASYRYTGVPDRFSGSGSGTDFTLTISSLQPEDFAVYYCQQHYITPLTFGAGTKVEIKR | 0.3 nM |
| TBD-6 (LC I93A) (Fab, V domains shown, Fab; also called LC I93A mutant) VH: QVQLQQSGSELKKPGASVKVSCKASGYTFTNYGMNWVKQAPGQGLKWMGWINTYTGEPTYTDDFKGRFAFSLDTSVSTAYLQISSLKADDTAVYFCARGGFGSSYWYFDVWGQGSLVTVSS VL: DIQLTQSPSSLSASVGDRVSITCKASQDVSIAVAWYQQKPGKAPKLLIYSASYRYTGVPDRFSGSGSGTDFTLTISSLQPEDFAVYYCQQHYATPLTFGAGTKVEIKR | 0.3 nM |
| TBD-11 (HC R98A) (Fab, V domains shown, Fab; also called HC R98A mutant) VH: QVQLQQSGSELKKPGASVKVSCKASGYTFTNYGMNWVKQAPGQGLKWMGWINTYTGEPTYTDDFKGRFAFSLDTSVSTAYLQISSLKADDTAVYFCAAGGFGSSYWYFDVWGQGSLVTVSS VL: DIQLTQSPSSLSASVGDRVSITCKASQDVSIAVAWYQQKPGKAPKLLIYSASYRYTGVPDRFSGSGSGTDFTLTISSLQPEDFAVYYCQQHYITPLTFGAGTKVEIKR | 3.4 nM |
